- Test system: human PCSK9 locus
- method.description: Secreted PCSK9 by ELISA in Huh7 cells transfected with mRNA and gRNA
- Format: cell-based
- protocol.conditions: Huh7 cells, LTRP5-ADD-ZIM3 mRNA + gRNA scaffold 316, 25 ng mRNA:12.5 ng gRNA, 6 days post-transfection, normalized to total cell count
value.type: Secreted PCSK9 (ng/mL)
Kindly provide the numeric value in ng/mL only, without the unit symbol.

Answered examples (6):
>>> experimental_result("TG-06-133 (guide AUGGUAGGCACAAGCUCAGC; listed as RNA, chemistry not given here)")
42.13
>>> experimental_result("TG-06-171 (guide CAGUACGUUCCAGGCAUUCA; listed as RNA, chemistry not given here)")
55.95
>>> experimental_result("TG-06-139 (guide AGGAGCAGCUAGUUGGUAAG; listed as RNA, chemistry not given here)")
25.45
>>> experimental_result("TG-06-167 (guide CACUGAAUAGCGCAGCCGCA; listed as RNA, chemistry not given here)")
66.61
>>> experimental_result("TG-06-132 (guide AGAAGAUUCAAUUUGCAAAG; listed as RNA, chemistry not given here)")
75.01
>>> experimental_result("TG-06-140 (guide AAACUUAGCCUGGACCCCCU; listed as RNA, chemistry not given here)")
59.94

State, in one line, measured Secreted PCSK9 of TG-06-135 (guide GGAAAGCUGAGCUUGUGCCU; listed as RNA, chemistry not given here) 44.59

###

- Test system: human PCSK9 locus
- method.description: Secreted PCSK9 by ELISA in Huh7 cells transfected with mRNA and gRNA
- Type: cell-based
- protocol.conditions: Huh7 cells, LTRP5-ADD-ZIM3 mRNA, day 6, averaged from the two doses
This section presents substances with their documented Average percent reduction in PCSK9 secretion values.
Kindly provide the numeric value in % only, without the unit symbol.

>>> experimental_result("TG-06-140 (guide AAACUUAGCCUGGACCCCCU; listed as RNA, chemistry not given here)")
20.45

State, in one line, measured Average percent reduction in PCSK9 secretion of TG-06-120 (guide CUCGGAAUCUGCUGUGCAUC; listed as RNA, chemistry not given here) 53.31

State, in one line, measured Average percent reduction in PCSK9 secretion of TG-06-170 (guide UCGGCCUCCGGGUCUCCCAA; listed as RNA, chemistry not given here) 9.79

State, in one line, measured Average percent reduction in PCSK9 secretion of TG-06-152 (guide GCCUCGCCCUCCCCAAACAG; listed as RNA, chemistry not given here) 37.24

State, in one line, measured Average percent reduction in PCSK9 secretion of TG-06-168 (guide GUGGGAAGGUUCGCGGGGUU; listed as RNA, chemistry not given here) 52.62

State, in one line, measured Average percent reduction in PCSK9 secretion of TG-06-127 (guide UCCUCCUGCCUGGUACACAA; listed as RNA, chemistry not given here) 51.82

State, in one line, measured Average percent reduction in PCSK9 secretion of TG-06-159 (guide GCGCGCCCCUUCACGCGCCC; listed as RNA, chemistry not given here) 10.97

State, in one line, measured Average percent reduction in PCSK9 secretion of TG-06-155 (guide GCAGCGACGUCGAGGCGCUC; listed as RNA, chemistry not given here) 42.55

State, in one line, measured Average percent reduction in PCSK9 secretion of TG-06-143 (guide GAAUCAAUCCUACUGUGGAC; listed as RNA, chemistry not given here) 60.81

State, in one line, measured Average percent reduction in PCSK9 secretion of TG-06-147 (guide GUGUUUCCUGGGUCCACCUU; listed as RNA, chemistry not given here) 41.15

State, in one line, measured Average percent reduction in PCSK9 secretion of TG-06-134 (guide GAAUUCUAUGGUAGGCACAA; listed as RNA, chemistry not given here) 33.07

State, in one line, measured Average percent reduction in PCSK9 secretion of TG-06-139 (guide AGGAGCAGCUAGUUGGUAAG; listed as RNA, chemistry not given here) 73.01

State, in one line, measured Average percent reduction in PCSK9 secretion of TG-06-004 (guide GCCAGGCCGUCCUCCUCGGA; listed as RNA, chemistry not given here) 15.41

State, in one line, measured Average percent reduction in PCSK9 secretion of TG-06-161 (guide GCUCCUGCACAGUCCUCCCC; listed as RNA, chemistry not given here) 44.73

State, in one line, measured Average percent reduction in PCSK9 secretion of TG-06-131 (guide UGAACAUGGUGUGUAAAAGG; listed as RNA, chemistry not given here) 42.11

State, in one line, measured Average percent reduction in PCSK9 secretion of TG-06-160 (guide CGCGCCCUGCUCCUGAACUU; listed as RNA, chemistry not given here) 53.31

###

- System: human PCSK9 locus
- method.description: Secreted PCSK9 by ELISA in Huh7 cells transfected with mRNA and gRNA
- Format: cell-based
- protocol.conditions: Huh7 cells, LTRP5-ADD-ZIM3 mRNA + gRNA scaffold 316, 25 ng mRNA:12.5 ng gRNA, 6 days post-transfection, normalized to total cell count
This section presents substances with their documented Secreted PCSK9 values.
Kindly provide the numeric value in ng/mL only, without the unit symbol.

Answered examples (5):
>>> experimental_result("TG-06-142 (guide UUCCACUGGCCUUAACCUGG; listed as RNA, chemistry not given here)")
27.27
>>> experimental_result("TG-06-127 (guide UCCUCCUGCCUGGUACACAA; listed as RNA, chemistry not given here)")
49.1
>>> experimental_result("TG-06-159 (guide GCGCGCCCCUUCACGCGCCC; listed as RNA, chemistry not given here)")
80.84
>>> experimental_result("TG-06-146 (guide GAAGUCUCACUGGUCAGCAG; listed as RNA, chemistry not given here)")
20.34
>>> experimental_result("TG-06-158 (guide GGAGCAGGGCGCGUGAAGGG; listed as RNA, chemistry not given here)")
31.72

Shifting focus to the substance that follows.
State, in one line, measured Secreted PCSK9 of TG-06-153 (guide GUUAAUGUUUAAUCAGAUAG; listed as RNA, chemistry not given here) 86.58

###

- Test system: human PCSK9 locus
- method.description: Secreted PCSK9 by ELISA in Huh7 cells transfected with mRNA and gRNA
- Assay type: cell-based
- protocol.conditions: Huh7 cells, LTRP5-ADD-ZIM3 mRNA, 25 ng mRNA:12.5 ng gRNA, day 6, relative to non-targeting gRNA control
- Method: To assess PCSK9 secretion, seeded Huh7 cells were transfected with mRNA encoding a catalytically-active CasX 676, dXR1, or LTRP5-ADD-ZIM3 and a gRNA with scaffold 316 and spacer targeting either the B2M or PCSK9 locus. Media supernatant was harvested at 6, 18, 36, and 87 days post-transfection to assess level of PCSK9 secretion by ELISA. […] As an additional control, PCSK9 secretion was also measured in the media supernatant harvested from wells containing untreated, naïve cells. […]
value.type: Percent reduction in PCSK9 secretion (%)
Kindly provide the numeric value in % only, without the unit symbol.

>>> experimental_result("TG-06-152 (guide GCCUCGCCCUCCCCAAACAG; listed as RNA, chemistry not given here)")
19.39
>>> experimental_result("TG-06-169 (guide CGGGGUUGGGAGACCCGGAG; listed as RNA, chemistry not given here)")
12.2
>>> experimental_result("TG-06-142 (guide UUCCACUGGCCUUAACCUGG; listed as RNA, chemistry not given here)")
61.73
>>> experimental_result("TG-06-153 (guide GUUAAUGUUUAAUCAGAUAG; listed as RNA, chemistry not given here)")
21.52
>>> experimental_result("TG-06-005 (guide GUGCUCGGGUGCUUCGGCCA; listed as RNA, chemistry not given here)")
7.19

State, in one line, measured Percent reduction in PCSK9 secretion of TG-06-171 (guide CAGUACGUUCCAGGCAUUCA; listed as RNA, chemistry not given here) 21.46

###

This section presents substances with their documented Percent reduction in PCSK9 secretion values.
- Tested on: human PCSK9 locus
- method.description: Secreted PCSK9 by ELISA in Huh7 cells transfected with mRNA and gRNA
- Assay type: cell-based
- protocol.conditions: Huh7 cells, LTRP5-ADD-ZIM3 mRNA, 50 ng mRNA:25 ng gRNA, day 6, relative to non-targeting gRNA control
Kindly provide the numeric value in % only, without the unit symbol.

Answered examples (5):
>>> experimental_result("TG-06-161 (guide GCUCCUGCACAGUCCUCCCC; listed as RNA, chemistry not given here)")
64.08
>>> experimental_result("TG-06-128 (guide AGAAAUCAACUGGACAAGCA; listed as RNA, chemistry not given here)")
48.7
>>> experimental_result("TG-06-160 (guide CGCGCCCUGCUCCUGAACUU; listed as RNA, chemistry not given here)")
74.93
>>> experimental_result("TG-06-1046 (guide UCUCUUACAUGGGGGGAAAC; listed as RNA, chemistry not given here)")
4.1
>>> experimental_result("TG-06-134 (guide GAAUUCUAUGGUAGGCACAA; listed as RNA, chemistry not given here)")
46.77

State, in one line, measured Percent reduction in PCSK9 secretion of TG-06-144 (guide GUGGGCAGCGAGGAGUCCAC; listed as RNA, chemistry not given here) 71.53

State, in one line, measured Percent reduction in PCSK9 secretion of TG-06-151 (guide CUCUGCGCGUAAUCUGACGC; listed as RNA, chemistry not given here) 35.05
